Target desc: Mcl-1/Bim interaction, recombinant human Mcl-1 (171-327) (Homo sapiens, UniProt Q07820)
Construct: made in house
Sequence (Q07820 171-327): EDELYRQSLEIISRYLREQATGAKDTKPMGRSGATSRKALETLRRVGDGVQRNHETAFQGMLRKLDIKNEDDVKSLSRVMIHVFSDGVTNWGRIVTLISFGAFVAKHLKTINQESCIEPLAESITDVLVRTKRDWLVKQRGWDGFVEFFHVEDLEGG
Assay procedure: Cell free Mcl-1: Bim Affinity Assay (Mcl-1 HTRF)
Format: binding
Experimental parameters: TR-FRET, 0.1 nM Mcl-1 (171-327), 0.05 nM biotin-Bim (51-76)
pIC50: −log10 of the molar value.

Compound	Target desc	pIC50
C[C@@H]1[C@@H](C)C[C@H](CC(=O)N(C)C)/C=C/[C@@H]2CC[C@H]2CN2C[C@@]3(CCCc4cc(Cl)ccc43)COc3ccc(cc32)C(=O)NS1(=O)=O	Mcl-1/Bim interaction, recombinant human Mcl-1 (171-327) (Homo sapiens, UniProt Q07820)	8.87
COC(=O)CO[C@H]1/C=C/CC[C@@H](C2CC2)S(=O)(=O)NC(=O)c2ccc3c(c2)N(C[C@@H]2CC[C@H]21)C[C@@]1(CCCc2cc(Cl)ccc21)CO3 (single isomer, unassigned)	Mcl-1/Bim interaction, recombinant human Mcl-1 (171-327) (Homo sapiens, UniProt Q07820)	8.88
O=C1NS(=O)(=O)[C@H](C2CC2)CC/C=C/[C@H](O)[C@@H]2CC[C@H]2CN2C[C@@]3(CCCc4cc(Cl)ccc43)COc3ccc1cc32 (single isomer, unassigned) [Example 149]	Mcl-1/Bim interaction, recombinant human Mcl-1 (171-327) (Homo sapiens, UniProt Q07820)	9.11

----------
Target desc: Mcl-1/Bim interaction, recombinant human Mcl-1 (171-327) (Homo sapiens, UniProt Q07820)
Construct: made in house
Assay procedure: Cell free Mcl-1: Bim Affinity Assay (Mcl-1 HTRF)
Type: binding
Experimental parameters: TR-FRET, 0.1 nM Mcl-1 (171-327), 0.05 nM biotin-Bim (51-76)
Experimental: Cell free Mcl-1: Bim Affinity Assay (Mcl-1 HTRF) The inhibition of the Mcl-1/Bim interaction was measured using a time-resolved fluorescence resonance energy transfer (TR-FRET) assay. […] A biotinylated peptide derived from human Bim (residues 51-76) was purchased from CPC Scientific (San Jose, CA). […] The reaction plates were further incubated overnight and then were read on an Envision® multimode reader (PerkinElmer). […]
// classify: if (IC50 < 0.8 nM) Yes else No

Compound	Target desc	Group
COCCO[C@H]1/C=C/CC[C@@H](C)S(=O)(=O)NC(=O)c2ccc3c(c2)N(C[C@@H]2CC[C@H]21)C[C@@]1(CCCc2cc(Cl)ccc21)CO3 [Example 405]	Mcl-1/Bim interaction, recombinant human Mcl-1 (171-327) (Homo sapiens, UniProt Q07820)	Yes
COCCNC(=O)CO[C@H]1/C=C/C[C@H](C)[C@@H](C)S(=O)(=O)NC(=O)c2ccc3c(c2)N(C[C@@H]2CC[C@H]21)C[C@@]1(CCCc2cc(Cl)ccc21)CO3 [Example 298]	Mcl-1/Bim interaction, recombinant human Mcl-1 (171-327) (Homo sapiens, UniProt Q07820)	Yes
O=C1NS(=O)(=O)[C@@H]2CC[C@H]2CCC[C@H](O)[C@@H]2CC[C@H]2CN2C[C@@]3(CCCc4cc(Cl)ccc43)COc3ccc1cc32 [Example 91]	Mcl-1/Bim interaction, recombinant human Mcl-1 (171-327) (Homo sapiens, UniProt Q07820)	No
C[C@@H]1C[C@@H](C)/C=C/[C@H](O)[C@@H]2CC[C@H]2CN2C[C@@]3(CCCc4cc(Cl)ccc43)COc3ccc(cc32)C(=O)NS1(=O)=O [Example 1014]	Mcl-1/Bim interaction, recombinant human Mcl-1 (171-327) (Homo sapiens, UniProt Q07820)	Yes
CC[C@@H]1CC/C=C/[C@H](OCC(C)(C)O)[C@@H]2CC[C@H]2CN2C[C@@]3(CCCc4cc(Cl)ccc43)COc3ccc(cc32)C(=O)NS1(=O)=O [Example 972]	Mcl-1/Bim interaction, recombinant human Mcl-1 (171-327) (Homo sapiens, UniProt Q07820)	No
O=C1NS(=O)(=O)CC[C@H](CO)/C=C/[C@H](O)[C@@H]2CC[C@H]2CN2C[C@@]3(CCCc4cc(Cl)ccc43)COc3ccc1cc32 [Example 201]	Mcl-1/Bim interaction, recombinant human Mcl-1 (171-327) (Homo sapiens, UniProt Q07820)	No
COCCN1[C@@H](C)C/C=C/[C@H](O)[C@@H]2CC[C@H]2CN2C[C@@]3(CCCc4cc(Cl)ccc43)COc3ccc(cc32)C(=O)NS1(=O)=O [Example 26]	Mcl-1/Bim interaction, recombinant human Mcl-1 (171-327) (Homo sapiens, UniProt Q07820)	Yes
COCCO[C@H]1/C=C\C[C@H](C)N(CCOC)S(=O)(=O)NC(=O)c2ccc3c(c2)N(C[C@@H]2CC[C@H]21)C[C@@]1(CCCc2cc(Cl)ccc21)CO3 (single isomer, unassigned) [Example 65]	Mcl-1/Bim interaction, recombinant human Mcl-1 (171-327) (Homo sapiens, UniProt Q07820)	No

----------
Target desc: Mcl-1/Bim interaction, recombinant human Mcl-1 (171-327) (Homo sapiens, UniProt Q07820)
Construct: made in house
Assay procedure: Cell free Mcl-1: Bim Affinity Assay (Mcl-1 HTRF)
Type: binding
Experimental parameters: TR-FRET, 0.1 nM Mcl-1 (171-327), 0.05 nM biotin-Bim (51-76)
Measured metric: IC50 (nM)

Compound	Measured metric	Unit string	Recorded result
O=C1NS(=O)(=O)[C@@H]2CCCC[C@H]2C/C=C/[C@H](O)[C@@H]2CC[C@H]2CN2C[C@@]3(CCCc4cc(Cl)ccc43)COc3ccc1cc32 (single isomer, unassigned)	IC50	nM	0.248
CCN1CC/C=C/[C@H](O)[C@@H]2CC[C@H]2CN2C[C@@]3(CCCc4cc(Cl)ccc43)COc3ccc(cc32)C(=O)NS1(=O)=O (single isomer, unassigned)	IC50	nM	0.66
Cn1cnc(CO[C@H]2/C=C/C[C@H]3CCC[C@@H]3S(=O)(=O)NC(=O)c3ccc4c(c3)N(C[C@@H]3CC[C@H]32)C[C@@]2(CCCc3cc(Cl)ccc32)CO4)n1 (single isomer, unassigned)	IC50	nM	2.58

----------
Target desc: Mcl-1/Bim interaction, recombinant human Mcl-1 (171-327) (Homo sapiens)
Construct: made in house
Assay procedure: Cell free Mcl-1: Bim Affinity Assay (Mcl-1 HTRF)
Format: binding
Experimental parameters: TR-FRET, 0.1 nM Mcl-1 (171-327), 0.05 nM biotin-Bim (51-76)
pIC50: −log10 of the molar value.

Compound	pIC50
O=C1NS(=O)(=O)[C@@H]2CCC[C@@H](CC[C@H](O)[C@@H]3CC[C@H]3CN3C[C@@]4(CCCc5cc(Cl)ccc54)COc4ccc1cc43)C2 (single isomer, unassigned) [Example 107]	9.22
CCC1C(C)C(C)C=CC(O)C2CCC2CN2CC3(CCCc4cc(Cl)ccc43)COc3ccc(cc32)C(=O)NS1(=O)=O (single isomer, unassigned) [Example 1054]	9.67
CC[C@@H]1CC/C=C/[C@H](O[C@H](C)C(=O)O)[C@@H]2CC[C@H]2CN2C[C@@]3(CCCc4cc(Cl)ccc43)COc3ccc(cc32)C(=O)NS1(=O)=O [Example 1005]	9.81

----------
# pIC50 annotations
Target desc: Mcl-1/Bim interaction, recombinant human Mcl-1 (171-327) (Homo sapiens)
Construct: made in house
Assay procedure: Cell free Mcl-1: Bim Affinity Assay (Mcl-1 HTRF)
Type: binding
Experimental parameters: TR-FRET, 0.1 nM Mcl-1 (171-327), 0.05 nM biotin-Bim (51-76)
pIC50: −log10 of the molar value.
Measured metric: pIC50

Compound	Target desc	Recorded result
CC(=O)O[C@H]1/C=C/C[C@@H]2CCCN2S(=O)(=O)NC(=O)c2ccc3c(c2)N(C[C@@H]2CC[C@H]21)C[C@@]1(CCCc2cc(Cl)ccc21)CO3 (single isomer, unassigned)	Mcl-1/Bim interaction, recombinant human Mcl-1 (171-327) (Homo sapiens)	8.72
COCCOCC[C@@H]1[C@@H](C)C/C=C/[C@H](O)[C@@H]2CC[C@H]2CN2C[C@@]3(CCCc4cc(Cl)ccc43)COc3ccc(cc32)C(=O)NS1(=O)=O (single isomer, unassigned) [Example 402]	Mcl-1/Bim interaction, recombinant human Mcl-1 (171-327) (Homo sapiens)	7.73
C[C@@H]1[C@@H](C)S(=O)(=O)NC(=O)c2ccc3c(c2)N(C[C@@H]2CC[C@H]2[C@@H](O)/C=C/[C@@H]1C)C[C@@]1(CCCc2cc(Cl)ccc21)CO3 (single isomer, unassigned)	Mcl-1/Bim interaction, recombinant human Mcl-1 (171-327) (Homo sapiens)	9.74
CC1C/C=C/[C@@H](O)[C@@H]2CC[C@H]2CN2C[C@@]3(CCCc4cc(Cl)ccc43)COc3ccc(cc32)C(=O)NS(=O)(=O)C1 (stereo in doubt)	Mcl-1/Bim interaction, recombinant human Mcl-1 (171-327) (Homo sapiens)	8.36
C[C@@H]1C/C=C\[C@H](O)[C@@H]2CC[C@H]2CN2C[C@@]3(CCCc4cc(Cl)ccc43)COc3ccc(cc32)C(=O)NS(=O)(=O)N1C[C@H]1CCCO1 (single isomer, unassigned)	Mcl-1/Bim interaction, recombinant human Mcl-1 (171-327) (Homo sapiens)	8.52
COCCOCC1CCC=CC(O)C2CCC2CN2CC3(CCCc4cc(Cl)ccc43)COc3ccc(cc32)C(=O)NS1(=O)=O (single isomer, unassigned)	Mcl-1/Bim interaction, recombinant human Mcl-1 (171-327) (Homo sapiens)	9.42
CCC[C@@H]1CC/C=C/[C@H](O)[C@@H]2CC[C@H]2CN2C[C@@]3(CCCc4cc(Cl)ccc43)COc3ccc(cc32)C(=O)NS1(=O)=O (single isomer, unassigned)	Mcl-1/Bim interaction, recombinant human Mcl-1 (171-327) (Homo sapiens)	9.56
